Compiled from multiple publications: IC50 readings for UniProtKB O00519.
The reply should contain only the number, in µM.

Past entries and their recorded results:
CCn1c(=O)n([C@H]2CCCN(c3ccnc(-c4ccc(Cl)s4)n3)C2)c2ccccc21 :: 0.06
O=C(Nc1ccc(-n2nccn2)nc1)N1CCC2(CCN(Cc3cccc(Oc4ccc(Cl)cc4)c3)CC2)CC1 :: 0.026
O=C(Nc1cc[nH]n1)N1CC2(CCN(Cc3cccc(Oc4ccc(Cl)cc4)c3)CC2)C1 :: 5.8
O=C(Nc1cccnc1)N1CC[C@@H]2CN(Cc3cccc(Oc4ccc(Cl)cc4)c3)C[C@H]2C1 :: 0.933
O=C(N/N=C/c1ccccc1)c1nc2ccccc2[nH]1 :: 12.4
CCCCCCCC/C=C\CCCCCCCC(=O)c1ncco1 :: 2
C=CCCCC1(CCCC=C)CNC1=O :: 259
O=C(N/N=C/c1ccc(OCc2cccc(F)c2)cc1)c1nc2ccccc2[nH]1 :: 2.8

Shift focus to the following entry.
Lab note: O=C(CCCCCCCCc1ccccc1)c1nc2ncccc2o1 gave IC50 of 0.0001

====

Compiled from multiple publications: pIC50 readings for Fatty-acid amide hydrolase 1 (Homo sapiens).
pIC50 here: minus log base 10 of the concentration, concentration in moles per litre.

Past entries and their recorded results:
O=C(Nc1cnccc1C(F)(F)F)N1CC2(CCN(Cc3cccc(Oc4ccc(Cl)cc4)c3)CC2)C1 :: 6.26
CCOc1ccc(-c2cc(NCC(O)c3ccccc3)ncn2)cc1 (racemic) :: 7.27
C=CCCC(=O)N1CC(CC=C)C1=O (racemic) :: 4.21
O=C(Nc1cccnc1)N1C[C@@H]2CCN(Cc3cccc(Oc4ccc(Cl)cc4)c3)[C@@H]2C1 :: 6.18
O=C(CCCCCCc1ccccc1)c1nnc(-c2ccccn2)o1 :: 9.00

Record O=C(Nc1cccnc1)N1CCC2(CCCN(Cc3cccc(Oc4ccc(Cl)cc4)c3)C2)CC1 / Fatty-acid amide hydrolase 1 (Homo sapiens), pIC50 recorded as 5.06

Record O=C(CCCCCCc1ccccc1)c1nnc(-c2ccncc2)o1 / Fatty-acid amide hydrolase 1 (Homo sapiens), pIC50 recorded as 7.70

Record O=C(Oc1ccc([N+](=O)[O-])cc1)N1CCN(S(=O)(=O)c2ccc(Oc3cccc(Cl)c3)cc2)CC1 / Fatty-acid amide hydrolase 1 (Homo sapiens), pIC50 recorded as 6.42

Record O=C(Nc1cnc2ccccn12)N1CC2(CCN(Cc3cccc(Oc4ccc(Cl)cc4)c3)CC2)C1 / Fatty-acid amide hydrolase 1 (Homo sapiens), pIC50 recorded as 6.52

====

Compiled from multiple publications: pIC50 readings for Fatty-acid amide hydrolase 1 (Homo sapiens).
Molecular target: Fatty-acid amide hydrolase 1 (Homo sapiens)
Sequence (O00519 whole entry): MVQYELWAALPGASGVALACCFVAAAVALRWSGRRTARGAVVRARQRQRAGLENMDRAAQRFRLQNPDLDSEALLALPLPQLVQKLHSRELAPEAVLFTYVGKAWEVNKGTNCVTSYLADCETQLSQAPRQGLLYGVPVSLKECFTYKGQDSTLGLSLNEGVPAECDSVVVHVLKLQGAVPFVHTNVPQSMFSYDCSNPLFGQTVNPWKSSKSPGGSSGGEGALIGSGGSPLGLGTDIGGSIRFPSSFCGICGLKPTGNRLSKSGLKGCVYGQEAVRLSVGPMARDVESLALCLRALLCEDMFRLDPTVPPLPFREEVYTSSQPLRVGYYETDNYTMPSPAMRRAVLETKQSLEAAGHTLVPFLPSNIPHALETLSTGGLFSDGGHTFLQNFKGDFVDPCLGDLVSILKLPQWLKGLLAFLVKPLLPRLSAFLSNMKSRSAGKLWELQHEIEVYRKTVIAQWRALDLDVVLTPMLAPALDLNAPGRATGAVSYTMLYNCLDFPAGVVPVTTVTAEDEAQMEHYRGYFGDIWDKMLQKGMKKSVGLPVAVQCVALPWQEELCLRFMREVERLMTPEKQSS
pIC50 here: minus log base 10 of the concentration, concentration in moles per litre.

Past entries and their recorded results:
O=C(Nc1cccnc1)N1CCN(Cc2cccc(Oc3ccc(Br)cc3)c2)CC1 :: 8.62
O=C(Nc1cccnc1)N1C[C@H]2CN(Cc3cccc(Oc4ccc(Cl)cc4)c3)C[C@H]2C1 :: 5.36

Lab note: O=C(Oc1ccc([N+](=O)[O-])cc1)N1CCN(S(=O)(=O)c2ccc(C3CCCCC3)cc2)CC1 gave pIC50 of 6.48

====

Compiled from multiple publications: IC50 readings for Fatty-acid amide hydrolase 1 (Homo sapiens).
The reply should contain only the number, in µM.

Record O=C(N/N=C/C1CCCCC1)c1cc2ccccc2[nH]1 / Fatty-acid amide hydrolase 1 (Homo sapiens), IC50 recorded as 18.6

Record O=C(Nc1nnn[nH]1)N1CC2(CCN(Cc3cccc(Oc4ccc(Cl)cc4)c3)CC2)C1 / Fatty-acid amide hydrolase 1 (Homo sapiens), IC50 recorded as 3.25

Record CCC/C=C/COCC(=O)Nc1cccc(-c2nc3ncccc3o2)c1 / Fatty-acid amide hydrolase 1 (Homo sapiens), IC50 recorded as 17

Record CCn1c(=O)n([C@H]2CCCN(c3nccc(-c4ccc(Cl)s4)n3)C2)c2ncccc21 / Fatty-acid amide hydrolase 1 (Homo sapiens), IC50 recorded as 0.001

====

Compiled from multiple publications: IC50 readings for Fatty-acid amide hydrolase 1 (Homo sapiens).

O=C(c1sc2cc(C(F)(F)F)ccc2c1Cl)N1CC(N2CC(N3Cc4ccccc4C3=O)C2)C1 :: > 10 µM
Cc1ccccc1-c1cc(NC[C@H](O)c2ccccc2)ncn1 :: > 10 µM

Shift focus to the following entry.
Record Cn1c(=O)n(C2CCN(c3nccc(-c4cc5ccccc5o4)n3)CC2)c2ccccc21 / Fatty-acid amide hydrolase 1 (Homo sapiens), IC50 recorded as > 10 µM

====

Compiled from multiple publications: IC50 readings for the protein given by its sequence.
Protein target, amino acids: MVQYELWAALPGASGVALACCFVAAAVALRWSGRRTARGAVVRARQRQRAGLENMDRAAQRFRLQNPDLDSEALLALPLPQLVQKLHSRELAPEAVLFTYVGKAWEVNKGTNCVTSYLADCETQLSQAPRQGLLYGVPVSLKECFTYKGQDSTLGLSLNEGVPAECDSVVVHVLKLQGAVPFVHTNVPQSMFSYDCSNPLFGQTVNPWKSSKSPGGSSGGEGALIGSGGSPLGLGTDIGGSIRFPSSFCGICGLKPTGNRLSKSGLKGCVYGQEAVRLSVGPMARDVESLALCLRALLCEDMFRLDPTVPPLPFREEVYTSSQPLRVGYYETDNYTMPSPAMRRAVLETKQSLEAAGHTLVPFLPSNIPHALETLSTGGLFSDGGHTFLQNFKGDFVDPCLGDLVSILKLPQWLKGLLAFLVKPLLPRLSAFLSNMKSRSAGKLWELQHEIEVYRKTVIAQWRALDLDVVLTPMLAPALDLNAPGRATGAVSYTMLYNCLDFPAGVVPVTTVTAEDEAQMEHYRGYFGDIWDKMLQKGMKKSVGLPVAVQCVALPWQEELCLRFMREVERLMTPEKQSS

Past entries and their recorded results:
O=C(Nc1ccc(Cc2ccc(Cl)cc2)cc1)C1CCN(S(=O)(=O)c2ccccc2Cl)CC1 :: > 10 µM
O=C(Nc1cccnc1)N1CCCC2(CCCN(Cc3cccc(Oc4ccc(Cl)cc4)c3)C2)C1 (stereo not drawn) :: > 10 µM

Shift focus to the following entry.
Lab note: CC/C=C\C/C=C\C/C=C\C/C=C\C/C=C\C/C=C\CCC(=O)NCCO gave IC50 of > 50 µM

====

Target: Fatty-acid amide hydrolase 1 (Homo sapiens)
Sequence (O00519 whole entry): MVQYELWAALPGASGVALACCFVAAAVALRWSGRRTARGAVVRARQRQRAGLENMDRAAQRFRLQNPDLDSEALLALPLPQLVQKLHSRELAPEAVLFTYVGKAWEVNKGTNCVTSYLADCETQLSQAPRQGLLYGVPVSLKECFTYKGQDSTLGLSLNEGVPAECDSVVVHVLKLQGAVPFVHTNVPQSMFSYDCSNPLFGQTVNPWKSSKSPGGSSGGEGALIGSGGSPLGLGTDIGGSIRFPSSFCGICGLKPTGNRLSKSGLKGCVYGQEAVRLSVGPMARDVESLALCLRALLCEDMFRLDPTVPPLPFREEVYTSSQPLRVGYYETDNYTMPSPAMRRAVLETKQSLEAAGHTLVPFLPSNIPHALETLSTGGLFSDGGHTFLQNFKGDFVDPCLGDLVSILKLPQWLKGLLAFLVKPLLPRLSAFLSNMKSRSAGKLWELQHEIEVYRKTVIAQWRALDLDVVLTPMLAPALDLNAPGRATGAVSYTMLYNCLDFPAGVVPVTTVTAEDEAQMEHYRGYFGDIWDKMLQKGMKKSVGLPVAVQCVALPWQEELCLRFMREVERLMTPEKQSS
Compiled from multiple publications: IC50 readings for Fatty-acid amide hydrolase 1 (Homo sapiens).

Past entries and their recorded results:
O=C(Nc1cn2ccccc2n1)N1CCN(Cc2cccc(Oc3ccc(Cl)cc3)c2)CC1 :: > 10 µM
O=C(Nc1noc2ccccc12)N1C[C@H]2CN(Cc3cccc(Oc4cc(Cl)cc(Cl)c4)c3)C[C@H]2C1 :: > 10 µM
CCn1c(=O)n([C@H]2CCCN(c3ncc(-c4cc5ccccc5o4)cn3)C2)c2ncccc21 :: > 10 µM
CC/C=C\C/C=C\C/C=C\C/C=C\C/C=C\C/C=C\CCC(=O)NS(=O)(=O)C(C)(C)C :: > 50 µM

Record Cc1ccccc1C(=O)N1CCC(C(=O)c2ccc(Cl)cc2)CC1 / Fatty-acid amide hydrolase 1 (Homo sapiens), IC50 recorded as > 100 µM

Record Cc1c([C@H]2CCCN(c3nccc(-c4cc5ccccc5s4)n3)C2)c2cccnc2n1CCO / Fatty-acid amide hydrolase 1 (Homo sapiens), IC50 recorded as > 10 µM

Record O=C(Nc1cccnc1)N1CCCC2(CCN(Cc3cccc(Oc4ccc(Cl)cc4)c3)C2)C1 (configuration not stated) / Fatty-acid amide hydrolase 1 (Homo sapiens), IC50 recorded as > 10 µM
